Assay details: In vitro human microsomal stability assay
Type: in vitro ADME
Recorded conditions: human, microsomes, 0.5 h, 0.5 μM, pH 7.4
HUMAN MICROSOMAL STABILITY (% REMAINING AFTER 30 MINUTES) by entry:
Hi! Could you send only the number? It should be in %, unit omitted.

Field: example entries. Status: answers known.
Molecule | Result number
OC(c1ccccn1)C1(c2nc3ccccc3s2)CCC1 (centres unmarked) | 46
OC(c1ccccn1)C1(c2ccccc2OC(F)(F)F)CCCO1 (single isomer, unassigned) [Example 97] | 6.4
OC(c1ccccn1)C1(c2ccccc2OC(F)(F)F)CCCO1 (single isomer, unassigned) [Example 96] | 0.68
Nc1cccnc1C(O)C1(c2cccc(C(F)(F)F)c2)CCC1 (centres unmarked) | 1.6
OC(c1ccccn1)C1(c2ccc(C(F)(F)F)cc2)CC(F)(F)C1 (centres unmarked) | 73
OC(c1ccccn1)C1(c2ccc(Cl)c(Cl)c2)CCCCC1 (centres unmarked) | 1.8
OC(c1ccccn1)C1(c2ccc(F)c(F)c2)CCCO1 (single isomer, unassigned) [Example 109] | 45

Consider now this further molecule.
Per the record, O=C1CC(c2cccc(C(F)(F)F)c2)([C@H](O)c2ccccn2)C1 (single isomer, unassigned) has HUMAN MICROSOMAL STABILITY (% REMAINING AFTER 30 MINUTES) of 66

* * *

Assay details: In vitro rat microsomal stability assay
Format: in vitro ADME, rat (Sprague-Dawley)
Recorded conditions: Sprague-Dawley, rat, microsomes, 0.5 h, 0.5 μM, pH 7.4
Measurement type: RAT MICROSOMAL STABILITY (% REMAINING AFTER 30 MINUTES)

Compound | Result
OC(c1ccccn1)C1(c2ccc(C(F)(F)F)cn2)CC(F)(F)C1 (stereo not drawn) | >85%
CC1(O)CC(c2ccc(OC(F)(F)F)cc2)(C(O)c2ncccn2)C1 (stereo not drawn) [Example 310] | >85%
OC(c1ccccn1)C1(c2ccc(OC(F)(F)F)cc2)CC2(C1)OCCO2 (stereo not drawn) | <0.01%
OC(c1ccccn1)C1(C2=CCCC(C(F)(F)F)C2)CCC1 (stereo not drawn) | <0.01%
OC(C1CCCc2cccnc21)C1(c2ccc(C(F)(F)F)cc2)CCC1 (single isomer, unassigned) [Example 184] | <0.01%

Per the record, OC(C1CCCc2cccnc21)C1(c2ccccc2C(F)(F)F)CCC1 (stereo not drawn) has RAT MICROSOMAL STABILITY (% REMAINING AFTER 30 MINUTES) of <0.01%

Per the record, OC(C1CCCc2cccnc21)C1(c2cccc(OC(F)(F)F)c2)CCC1 (stereo not drawn) [Example 187] has RAT MICROSOMAL STABILITY (% REMAINING AFTER 30 MINUTES) of <0.01%

Per the record, OC1CC(c2cc(C(F)(F)F)ccn2)([C@H](O)c2ccccn2)C1 (stereo partly drawn) has RAT MICROSOMAL STABILITY (% REMAINING AFTER 30 MINUTES) of >85%

Per the record, OC(C1CCCc2cccnc21)C1(c2cccc(OC(F)(F)F)c2)CCC1 (stereo not drawn) [Example 188] has RAT MICROSOMAL STABILITY (% REMAINING AFTER 30 MINUTES) of <0.01%

* * *

Assay details: In vitro human microsomal stability assay
Type: in vitro ADME
Recorded conditions: human, microsomes, 0.5 h, 0.5 μM, pH 7.4
HUMAN MICROSOMAL STABILITY (% REMAINING AFTER 30 MINUTES) by entry:

Field: example entries. Status: answers known.
Molecule | Result
Cc1cc(C(F)(F)F)cc(C2([C@@H](O)c3ccccn3)CC(=O)C2)n1 | >85%
O=C1CC(c2ccnc(C(F)(F)F)c2)([C@H](O)c2ccccn2)C1 | >85%

Per the record, OC(C1CCCc2cccnc21)C1(c2cccc(C(F)(F)F)c2)CCC1 (single isomer, unassigned) [Example 179] has HUMAN MICROSOMAL STABILITY (% REMAINING AFTER 30 MINUTES) of <0.01%

* * *

RAT MICROSOMAL STABILITY (% REMAINING AFTER 30 MINUTES) by entry:
Assay details: In vitro rat microsomal stability assay
Type: in vitro ADME, rat (Sprague-Dawley)
Recorded conditions: Sprague-Dawley, rat, microsomes, 0.5 h, 0.5 μM, pH 7.4
Hi! Could you send only the number? It should be in %, unit omitted.

Field: example entries. Status: answers known.
Compound | Measure unit | Result number
O=C1CC(c2cc(C(F)(F)F)ccn2)(C(O)c2ccccn2)C1 (stereo not drawn) [Example 293] | % | 69
OC(c1ccccn1)C1(c2nc3ccc(Cl)cc3o2)CCC1 (stereo not drawn) [Example 301] | % | 22
O=C1CC(c2ccc(Cl)c(Cl)c2)([C@H](O)c2ccccn2)C1 [Example 117] | % | 50
Cc1ccc(CC2(C(O)c3ccccn3)CCC2)cc1 (stereo not drawn) [Example 52] | % | 0.05
O=C1CC(c2cccc(C(F)(F)F)c2)([C@@H](O)c2ccccn2)C1 (single isomer, unassigned) [Example 243] | % | 55

Consider now this further compound.
Per the record, O[C@H](c1ccccn1)C1(c2ccc(C(F)(F)F)cc2F)CCC1 [Example 27] has RAT MICROSOMAL STABILITY (% REMAINING AFTER 30 MINUTES) of 15

* * *

Assay details: In vitro rat microsomal stability assay
Format: in vitro ADME, rat (Sprague-Dawley)
Recorded conditions: Sprague-Dawley, rat, microsomes, 0.5 h, 0.5 μM, pH 7.4
Measurement type: RAT MICROSOMAL STABILITY (% REMAINING AFTER 30 MINUTES)

Field: example entries. Status: answers known.
Compound | Result
OC(c1ccccn1)C1(C2CCCCC2)CCC1 (stereo not drawn) | <0.01%
CC1(O)CC(c2ccnc(C(F)(F)F)c2)(C(O)c2ccccn2)C1 (single isomer, unassigned) | >85%

Per the record, OC(C1CCCc2cccnc21)C1(c2ccc(Cl)c(Cl)c2)CCC1 (single isomer, unassigned) [Example 182] has RAT MICROSOMAL STABILITY (% REMAINING AFTER 30 MINUTES) of <0.01%

* * *

Assay details: In vitro human microsomal stability assay
Format: in vitro ADME
Recorded conditions: human, microsomes, 0.5 h, 0.5 μM, pH 7.4
HUMAN MICROSOMAL STABILITY (% REMAINING AFTER 30 MINUTES) by entry:

Per the record, N[C@@H]1CCC[C@@H]1[C@@H](O)C1(c2ccc(Cl)c(Cl)c2)CCC1 [Example 216] has HUMAN MICROSOMAL STABILITY (% REMAINING AFTER 30 MINUTES) of >85%

Per the record, OC1CC(c2ccc(Cl)c(Cl)c2)(C(O)c2ccccn2)C1 (single isomer, unassigned) [Example 118] has HUMAN MICROSOMAL STABILITY (% REMAINING AFTER 30 MINUTES) of >85%

Per the record, OC(C1CCCc2cccnc21)C1(c2ccccc2C(F)(F)F)CCC1 (stereo not drawn) [Example 195] has HUMAN MICROSOMAL STABILITY (% REMAINING AFTER 30 MINUTES) of <0.01%
